Test system: LOC_OS02G17970-cb001
Assay: thermal shift delta Tm vs DMSO control; higher = stronger stabilization (binding);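 note: purified Escherichia coli-expressed rice kinase domain construct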
Details: 12.5 µM; protein concentration 2 µM
Form field: thermal shift delta Tm (one value per entry).

[
  {
    "molecule": "Nc1cccc(S(=O)(=O)N2CCCN(S(=O)(=O)c3ccc4c(c3)OCCO4)CC2)c1",
    "thermal shift delta Tm, °C": 0.7
  },
  {
    "molecule": "CC#CC(=O)N1CCC[C@H]1c1nc(-c2ccc(C(=O)Nc3ccccn3)cc2)c2c(N)nccn12 [Acalabrutinib (ACP-196)]",
    "thermal shift delta Tm, °C": 0.74
  },
  {
    "molecule": "CCNc1nc(Nc2cc(F)c(C(=O)N3CCOCC3)cc2OC)ncc1C(F)(F)F",
    "thermal shift delta Tm, °C": 0.54
  },
  {
    "molecule": "CCCCNc1ncc(-c2ccc(CN3CCOCC3)cn2)c(NC2CCC(O)CC2)n1 (stereo not drawn)",
    "thermal shift delta Tm, °C": 0.44
  },
  {
    "molecule": "Cc1ccc(NC(=O)c2cccc(N(C)C)c2)cc1NC(=O)c1ccc(O)cc1",
    "thermal shift delta Tm, °C": 0.95
  },
  {
    "molecule": "COc1cc2ncnc(Nc3ccc(F)c(Cl)c3)c2cc1NC(=O)/C=C/CN1CCCCC1",
    "thermal shift delta Tm, °C": 1.92
  },
  {
    "molecule": "Cc1ccc(C(=O)Nc2ccc(CN3CCN(C)CC3)c(C(F)(F)F)c2)cc1C#Cc1cnc2[nH]ncc2c1 [GZD824 Dimesylate]",
    "thermal shift delta Tm, °C": 0.61
  },
  {
    "molecule": "O=C1NC(=O)[C@@H](c2cn3c4c(cccc24)CCC3)[C@@H]1c1c[nH]c2ccccc12 [Tivantinib (ARQ 197)]",
    "thermal shift delta Tm, °C": 0.24
  }
]

---

Test system: LOC_OS01G60700-cb002
Experiment: thermal shift delta Tm vs DMSO control; higher = stronger stabilization (binding)
Conditions: 12.5 µM; protein concentration 2 µM

[
  {
    "molecule": "c1cncc(CN2CCC(n3ncc4c(N5CCOCC5)nc(-c5ccc6[nH]ccc6c5)nc43)CC2)c1",
    "thermal shift delta Tm": "0.71 °C"
  },
  {
    "molecule": "Cn1cnc2c(F)c(Nc3ccc(Br)cc3F)c(C(=O)NOCCO)cc21",
    "thermal shift delta Tm": "1.26 °C"
  },
  {
    "molecule": "COc1ncc(-c2cc(-c3ncc(CN4C[C@@H](C)O[C@@H](C)C4)o3)c3cn[nH]c3c2)cc1NS(C)(=O)=O",
    "thermal shift delta Tm": "1.12 °C"
  },
  {
    "molecule": "O=C(c1ccc(/C=C/c2n[nH]c3ccccc23)cc1)N1CCNCC1",
    "thermal shift delta Tm": "0.48 °C"
  },
  {
    "molecule": "Cc1cccc(Nc2nc(NC3CCCCC3N)ncc2C(N)=O)c1 (stereo not drawn)",
    "thermal shift delta Tm": "1.44 °C"
  },
  {
    "molecule": "O=C(NCc1ccccc1)c1csc(Nc2ccncn2)n1",
    "thermal shift delta Tm": "0.63 °C"
  },
  {
    "molecule": "c1nc2c(NC3CCCCC3)nc(Nc3ccc(N4CCOCC4)cc3)nc2[nH]1",
    "thermal shift delta Tm": "1.27 °C"
  },
  {
    "molecule": "Cc1cn(-c2cc(NC(=O)c3ccc(C)c(Nc4nccc(-c5cnccn5)n4)c3)cc(C(F)(F)F)c2)cn1",
    "thermal shift delta Tm": "1.39 °C"
  },
  {
    "molecule": "Cc1cn(-c2cc(NC(=O)c3ccc(C)c(Nc4nccc(-c5cccnc5)n4)c3)cc(C(F)(F)F)c2)cn1",
    "thermal shift delta Tm": "0.99 °C"
  },
  {
    "molecule": "CCNC(=O)Nc1ccc(-c2nc(N3CCOC[C@@H]3C)c3c(n2)C(C)(C)S(=O)(=O)C3)cc1",
    "thermal shift delta Tm": "-0.02 °C"
  },
  {
    "molecule": "CC(C)(O)CNc1ncc(-c2ccnc(Nc3ccncc3)n2)c(CC2CC2)n1",
    "thermal shift delta Tm": "0.34 °C"
  },
  {
    "molecule": "CC(C)Nc1cc(-c2c[nH]c(C(=O)N[C@H](CO)c3cccc(Cl)c3)c2)c(Cl)cn1",
    "thermal shift delta Tm": "1.28 °C"
  },
  {
    "molecule": "C[C@@H]1COCCN1c1cc(C2([S@](C)(=N)=O)CC2)nc(-c2cc[nH]c3nccc2-3)n1",
    "thermal shift delta Tm": "0.22 °C"
  },
  {
    "molecule": "Nc1nccc(Oc2ccc3c(C(=O)Nc4cccc(C(F)(F)F)c4)cccc3c2)n1",
    "thermal shift delta Tm": "0.86 °C"
  },
  {
    "molecule": "CS(=O)(=O)c1ccc(-c2cnc(N)c(C(=O)Nc3ccccc3)n2)cc1",
    "thermal shift delta Tm": "0.17 °C"
  },
  {
    "molecule": "NC(=O)c1ccc2nc(-c3ccc(Oc4ccc(Cl)cc4)cc3)[nH]c2c1",
    "thermal shift delta Tm": "-0.56 °C"
  },
  {
    "molecule": "Cc1cc(Nc2cc(Cl)nc(Oc3ccc([N+](=O)[O-])cc3)n2)n[nH]1",
    "thermal shift delta Tm": "-0.44 °C"
  },
  {
    "molecule": "O=C(NCCCNc1nc(Nc2cccc(NC(=O)N3CCCC3)c2)ncc1I)c1cccs1",
    "thermal shift delta Tm": "0.35 °C"
  }
]

Reference for the values: the supplement of paper PMC9694430
